Entries with reported IC50 on HIV protease (Human immunodeficiency virus type 1 group M subtype B, UniProt P03366)
measured parameter: IC50

[[record]]
compound = "CC(C)(C)NC(=O)[C@@H]1C[C@@H]2CCCC[C@@H]2CN1C[C@@H](O)[C@H](Cc1ccccc1)NC(=O)O[C@H]1CCOC1 [Compound A]"
value_measured = "~260 nM"

[[record]]
compound = "CC(C)[C@@H]1[C@H](OC(=O)N[C@@H](Cc2ccccc2)[C@H](O)CN2C[C@H]3CCCC[C@H]3C[C@H]2C(=O)NC(C)(C)C)CCS1(=O)=O [Compound C]"
value_measured = "~4 nM"

[[record]]
compound = "CC(C)(C)NC(=O)[C@@H]1C[C@@H]2CCCC[C@@H]2CN1C[C@@H](O)[C@H](Cc1ccccc1)NC(=O)O[C@H]1CCS(=O)(=O)C1 [B, hydrate]"
value_measured = "~59 nM"

